Molecular target: Hmlalpha2 (UniProt P0CY09)
Sequence: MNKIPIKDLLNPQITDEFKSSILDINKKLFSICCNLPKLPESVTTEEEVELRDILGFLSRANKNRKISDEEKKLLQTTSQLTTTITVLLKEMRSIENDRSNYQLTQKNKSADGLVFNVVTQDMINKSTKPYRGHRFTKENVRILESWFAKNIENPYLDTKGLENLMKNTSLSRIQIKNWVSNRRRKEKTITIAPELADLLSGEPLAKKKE
Assay: PBM E-score (8-mer binding enrichment) (E-score (-0.5 to 0.5)); higher = stronger / more preferred TF binding
Details: protein concentration: 200 nM; construct: GST-full length
The full ranking holds about 33,000 sequences; the median of “E-score (-0.5 to 0.5)” is about -0.04, and the highest 2% start at about 0.36. Shown is part of a subset that was picked to be rich in the highest values.
READOUT: PBM E-score

[[record]]
record_sequence = "CACCTTCC"
result = -0.11

[[record]]
record_sequence = "GGCCATTA"
result = 0.0102

[[record]]
record_sequence = "CGTGTAAG"
result = 0.467

[[record]]
record_sequence = "ATGTTAGA"
result = 0.358

[[record]]
record_sequence = "ACGTTAAA"
result = 0.362

[[record]]
record_sequence = "ATTGTGTA"
result = 0.42

[[record]]
record_sequence = "AACATGCA"
result = 0.417

[[record]]
record_sequence = "CTGTTAAG"
result = 0.255

[[record]]
record_sequence = "ATGTTACA"
result = 0.401

[[record]]
record_sequence = "ACCATGCA"
result = 0.106

[[record]]
record_sequence = "GTTGTGCA"
result = -0.00044

[[record]]
record_sequence = "AATCCTTG"
result = 0.103

[[record]]
record_sequence = "CTCAGTAA"
result = -0.0267

[[record]]
record_sequence = "TACACACA"
result = 0.43

[[record]]
record_sequence = "GAATTATA"
result = 0.113

[[record]]
record_sequence = "ATCATGCG"
result = -0.0811

[[record]]
record_sequence = "AGGAGATG"
result = -0.157

[[record]]
record_sequence = "AGAACTAA"
result = 0.189

[[record]]
record_sequence = "CGTGTAAC"
result = 0.443

[[record]]
record_sequence = "CACACACA"
result = 0.228

[[record]]
record_sequence = "AACATGCT"
result = 0.396

[[record]]
record_sequence = "ATGTTAAT"
result = 0.447

[[record]]
record_sequence = "ACTGTAAG"
result = 0.0573

[[record]]
record_sequence = "GGCCTACC"
result = -0.247

[[record]]
record_sequence = "ATCATGCA"
result = -0.0495

[[record]]
record_sequence = "AGGTTAAT"
result = 0.182

[[record]]
record_sequence = "CACGCCCC"
result = 0.0158

[[record]]
record_sequence = "AGCGCGCA"
result = 0.0691

[[record]]
record_sequence = "ATTAACCA"
result = 0.0177

[[record]]
record_sequence = "CACATGCG"
result = 0.141

[[record]]
record_sequence = "ATGTTAAA"
result = 0.473

[[record]]
record_sequence = "CGTTAGGA"
result = 0.0405

[[record]]
record_sequence = "GACATGGA"
result = 0.263

[[record]]
record_sequence = "GTTGTGTA"
result = 0.448

[[record]]
record_sequence = "CAGCATTA"
result = 0.109

[[record]]
record_sequence = "AGAAAGCG"
result = -0.00586

[[record]]
record_sequence = "ACCATGCT"
result = 0.0386

[[record]]
record_sequence = "CACACAAA"
result = 0.126

[[record]]
record_sequence = "AGTGTAAC"
result = 0.198

[[record]]
record_sequence = "CTTGTGTA"
result = 0.41

[[record]]
record_sequence = "AAGAGTAC"
result = 0.0432

[[record]]
record_sequence = "AACATGCG"
result = 0.399

[[record]]
record_sequence = "CAACTAAA"
result = 0.176

[[record]]
record_sequence = "ACAACTAC"
result = 0.225

[[record]]
record_sequence = "ATGCGTTC"
result = 0.122

[[record]]
record_sequence = "CTTGTGAA"
result = 0.182

